- SYSTEM_NAME: T1, BCMA (Homo sapiens (Human), UniProt Q02223 1-54, limits assumed)
- T1 sequence: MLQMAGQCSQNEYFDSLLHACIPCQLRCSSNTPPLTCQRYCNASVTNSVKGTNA
- METHOD: ELISA, format not described
- Set-up: unit not given here
Criterion: ELISA_avg strictly under 9. Met: 1.0. Not met: 0.0.

D-domain SEQ ID NO: 169 (designed binder) MGSWFEFDKRLYAIIHRLRALGGSEAELAAFEKEIAAFESELQAYKGKGNPEVEKLRYKAAIIRLYLQAYRHN ... 0.0
D-domain SEQ ID NO: 95 (designed binder) MGSWSEFYDRLKAIADRLHALGGSEAELAAFEKEIAAFESELQAYKGKGNPEVEELRTEAAIIRVYLQAYRHN ... 1.0
D-domain SEQ ID NO: 177 (designed binder) MGSWYEFWVRLTAIRWRLEALGGSEAELAAFEKEIAAFESELQAYKGKGNPEVEWLREQAASIRWVLQAYRHN ... 1.0

Proceed to the following item.
Query: Hello, is ELISA_avg of the following binder strictly smaller than 9? D-domain SEQ ID NO: 273 (designed binder) MGSWVDFKYHLAVIKFWLEALGGSEAELANFETWIANFEQELQMYKGKGNPEVEALRKEAAAIRDELQAYRHN
Reply: 0.0
